assayed.system: 5-LOX (Homo sapiens, UniProt P09917)
Construct: purchased BioVision K980-100
Sequence (P09917 whole entry): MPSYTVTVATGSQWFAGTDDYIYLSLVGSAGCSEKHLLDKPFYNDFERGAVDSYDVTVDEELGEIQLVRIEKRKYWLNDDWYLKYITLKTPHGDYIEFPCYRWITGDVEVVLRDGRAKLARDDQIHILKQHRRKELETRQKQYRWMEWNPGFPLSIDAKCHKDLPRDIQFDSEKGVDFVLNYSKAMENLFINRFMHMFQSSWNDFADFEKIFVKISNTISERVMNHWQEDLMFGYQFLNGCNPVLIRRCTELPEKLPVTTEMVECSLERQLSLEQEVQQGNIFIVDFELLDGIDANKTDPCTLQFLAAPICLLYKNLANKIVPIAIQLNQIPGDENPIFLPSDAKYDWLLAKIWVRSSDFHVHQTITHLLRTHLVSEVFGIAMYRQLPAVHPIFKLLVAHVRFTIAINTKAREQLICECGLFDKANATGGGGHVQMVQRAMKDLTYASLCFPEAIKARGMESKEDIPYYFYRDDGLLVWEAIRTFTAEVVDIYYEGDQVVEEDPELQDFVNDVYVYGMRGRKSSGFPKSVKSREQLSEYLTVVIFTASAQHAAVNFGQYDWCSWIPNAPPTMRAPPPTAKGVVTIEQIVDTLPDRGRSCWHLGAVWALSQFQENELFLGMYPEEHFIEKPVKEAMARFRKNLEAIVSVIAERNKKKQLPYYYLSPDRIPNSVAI
protocol.description: 5-LOX inhibition assay (fluorometric inhibitor screening kit)
Type: biochemical
quantity.kind: IC50 (µM)
Just the number please, in µM, no unit attached.

Lookup: I am curious: what IC50 value has been reported for C/C=C/C#CC#C/C=C/CC[C@@H](CCO)O[C@@H]1O[C@H](CO)[C@@H](O)[C@H](O)[C@H]1O ?
Found: 34.6

* * *

Measured IC50, listed per entry.
assayed.system: horse serum butyrylcholinesterase (Equine BchE) (Equus caballus)
Construct: using horse serum butyrylcholinesterase (Equine BchE; CAS#9001-08-5); tissue CAS#9001-08-5; host or cells: horse serum
Sequence (P81908 whole entry): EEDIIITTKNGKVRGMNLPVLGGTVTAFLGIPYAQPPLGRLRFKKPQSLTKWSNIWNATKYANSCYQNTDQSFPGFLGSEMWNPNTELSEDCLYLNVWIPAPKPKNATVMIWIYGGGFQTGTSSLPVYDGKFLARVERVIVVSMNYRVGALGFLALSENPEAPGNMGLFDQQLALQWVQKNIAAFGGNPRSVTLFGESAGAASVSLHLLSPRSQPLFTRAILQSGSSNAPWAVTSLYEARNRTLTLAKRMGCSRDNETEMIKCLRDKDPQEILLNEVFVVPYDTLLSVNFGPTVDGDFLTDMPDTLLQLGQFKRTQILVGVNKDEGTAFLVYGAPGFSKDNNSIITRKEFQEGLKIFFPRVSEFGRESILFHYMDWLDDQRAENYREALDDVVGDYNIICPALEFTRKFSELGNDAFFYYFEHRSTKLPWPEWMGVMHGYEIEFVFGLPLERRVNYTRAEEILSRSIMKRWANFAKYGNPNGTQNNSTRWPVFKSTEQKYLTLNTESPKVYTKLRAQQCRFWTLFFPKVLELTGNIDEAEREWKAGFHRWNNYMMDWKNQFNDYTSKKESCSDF
protocol.description: BchE inhibition assay
Format: biochemical
Mention the unit after the number when you answer.

Lookup: I am curious: what IC50 value has been reported for C/C=C/C#CC#C/C=C/CC[C@@H](CCO)O[C@@H]1O[C@H](CO)[C@@H](O)[C@H](O)[C@H]1O ?
Found: 14.8 µM

Lookup: I am curious: what IC50 value has been reported for C/C=C/C#CC#C/C=C/CC[C@H](O)CCO ?
Found: 179 µM
